Reference source for all entries: the Immune Epitope Database (IEDB)

# Tested On: HLA-A*02:01
# Assay Explanation: IEDB peptide-MHC binding, purified MHC/competitive/radioactivity; bounds were set here for any values at or beyond the usual limits of such assays
# Test Context: source organism: Mammarenavirus juninense
Quantity Measured: IC50

q: Determine from records and report IC50 for `GLFQFFVFL`
a: 495 nM

q: Determine from records and report IC50 for `FQFFVFLAL`
a: 675 nM

q: Determine from records and report IC50 for `KSGLFQFFV`
a: 17 nM

q: Determine from records and report IC50 for `SLKAFFSWSL`
a: 1600 nM

q: Determine from records and report IC50 for `SLIAIIKGIV`
a: 763 nM

q: Determine from records and report IC50 for `KMKCFGNTAV`
a: 2930 nM

q: Determine from records and report IC50 for `FQTVSFSMV`
a: 180 nM

q: Determine from records and report IC50 for `GLFQFFVFLA`
a: 26 nM

q: Determine from records and report IC50 for `SLFLHLVGI`
a: 1.5 nM

q: Determine from records and report IC50 for `SLIAIIKGV`
a: 12 nM

q: Determine from records and report IC50 for `ALVAVSLIAI`
a: 324 nM

q: Determine from records and report IC50 for `GLHTEFQTV`
a: 129 nM

q: Determine from records and report IC50 for `FMISFDDIAV`
a: 5.4 nM

---

# Tested On: HLA-A*02:03
# Assay Explanation: IEDB peptide-MHC binding, purified MHC/competitive/radioactivity; bounds were set here for any values at or beyond the usual limits of such assays
# Test Context: source organism: SARS-CoV1
Quantity Measured: pIC50
# reply with the number alone; pIC50 is -log10 of concentration in mol/L

q: Determine from records and report pIC50 for `IAACAMLLV`
a: 6.41

q: Determine from records and report pIC50 for `YLLGLSAIM`
a: 7.43

q: Determine from records and report pIC50 for `FLAHLQWFA`
a: 9.68

q: Determine from records and report pIC50 for `YLSSVLLAL`
a: 9.51

q: Determine from records and report pIC50 for `FQFICNLLLL`
a: 7.21

q: Determine from records and report pIC50 for `WLMWFIISIV`
a: 8.33

q: Determine from records and report pIC50 for `TLLLWISVKV`
a: 5.97

q: Determine from records and report pIC50 for `MLSVVGFLV`
a: 8.46

q: Determine from records and report pIC50 for `FLAFLLFLV`
a: 7.24

q: Determine from records and report pIC50 for `FTYASALWEI`
a: 8.22

q: Determine from records and report pIC50 for `IMQVFFGYFA`
a: 5.80

---

# Tested On: HLA-A*02:02
# Assay Explanation: IEDB peptide-MHC binding, cellular MHC/competitive/fluorescence; bounds were set here for any values at or beyond the usual limits of such assays
# Test Context: source organism: Vaccinia virus WR
Quantity Measured: IC50 (µM)
Report as a plain number; the unit µM is understood.

q: Determine from records and report IC50 for `CAVIPFDDI`
a: 15.8

q: Determine from records and report IC50 for `IAMLKSKNI`
a: 37.7

q: Determine from records and report IC50 for `EIDVSEVKT`
a: 46

q: Determine from records and report IC50 for `SIGFEARIV`
a: 10.1

q: Determine from records and report IC50 for `LMLHNPTSET`
a: 39.3

q: Determine from records and report IC50 for `TAFFNTCKPT`
a: 31.6

q: Determine from records and report IC50 for `RTIDAINKCV`
a: 10.8

q: Determine from records and report IC50 for `DTDIVNNFIT`
a: 8.59

q: Determine from records and report IC50 for `KLYIALCKVT`
a: 7.11

q: Determine from records and report IC50 for `DVIKSISSI`
a: 63.8

q: Determine from records and report IC50 for `NINFNNSSII`
a: 6.64

q: Determine from records and report IC50 for `TIEDDKIVTM`
a: 17

q: Determine from records and report IC50 for `LVIRNEVNDT`
a: 5.5

q: Determine from records and report IC50 for `DTSPTKRCRL`
a: 12.2

q: Determine from records and report IC50 for `VIRHVDGKI`
a: 8.55

q: Determine from records and report IC50 for `IIDLLLPST`
a: 15.1

q: Determine from records and report IC50 for `KVIKLVKSLV`
a: 14.3

q: Determine from records and report IC50 for `TVDVRNIVT`
a: 13.4

q: Determine from records and report IC50 for `NIREGTHVLL`
a: 8.88

q: Determine from records and report IC50 for `VIVPDIKLDA`
a: 33.5

q: Determine from records and report IC50 for `VMDKNHAIFT`
a: 18.7
